# Measured target: HPK1 kinase (aa1-346, Life Technologies) (Homo sapiens, UniProt Q92918)
# Sequence (Q92918 1-346): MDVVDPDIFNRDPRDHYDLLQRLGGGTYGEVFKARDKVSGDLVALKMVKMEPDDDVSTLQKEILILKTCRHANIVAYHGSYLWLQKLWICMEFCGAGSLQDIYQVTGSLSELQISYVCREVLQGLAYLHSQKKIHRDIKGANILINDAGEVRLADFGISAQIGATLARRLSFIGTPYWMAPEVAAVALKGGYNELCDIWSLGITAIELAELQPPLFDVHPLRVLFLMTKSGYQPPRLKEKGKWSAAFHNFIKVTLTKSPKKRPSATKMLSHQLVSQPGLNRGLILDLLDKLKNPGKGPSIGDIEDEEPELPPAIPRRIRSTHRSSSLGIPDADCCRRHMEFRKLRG
Measurement kind: pIC50
Please keep in mind that pIC50 is minus log10 of the molar concentration; only the number is needed.

The following compounds have reported results that may help.
Cc1cc(-c2cnc(N)c(Oc3cnn([C@H]4CC[C@@](C)(O)CC4)c3)n2)cc2c1CN(C)CC2 [Example 312] :: 7.20
Cc1cc(-c2cnc(N)c(-n3cc(C(=O)N(C)C)cn3)n2)cc2c1CCN(C)C2 [Example 46] :: 7.68

Specify the recorded pIC50 for Cc1cc(-c2cnc(N)c(Oc3cnn(C4CCN(C)C4)c3)n2)cc2c1CCN(C)C2 (single isomer, unassigned) [Example 280B] , system: HPK1 kinase (aa1-346, Life Technologies) (Homo sapiens, UniProt Q92918). 7.29

Given Cc1cc(-c2cnc(N)c(OCc3ccnc(N)c3)n2)cc2c1CN(C)CC2 [Example 31] , report its pIC50 on HPK1 kinase (aa1-346, Life Technologies) (Homo sapiens, UniProt Q92918). 7.60

Report the value of pIC50 obtained on HPK1 kinase (aa1-346, Life Technologies) (Homo sapiens, UniProt Q92918) for CNc1cc(-c2cnc(N)c(-n3cc(C(=O)N(C)C)cn3)n2)cc2c1CCN(C)C2 [Example 289] . 8.01

# return pIC50 for Cc1cnccc1COc1nc(-c2cc(C)c3c(c2)CN(C)CC3)cnc1N [Example 9] , test system: HPK1 kinase (aa1-346, Life Technologies) (Homo sapiens, UniProt Q92918) 7.77

Output reported pIC50 of the compound Cc1cc(-c2cnc(N)c(O[C@@H](C)c3c(Cl)ccc(C(=O)NC4CC4)c3Cl)n2)cc2c1CCN(C)C2 [Example 47B] on HPK1 kinase (aa1-346, Life Technologies) (Homo sapiens, UniProt Q92918). 5.57

Provide measured pIC50 on HPK1 kinase (aa1-346, Life Technologies) (Homo sapiens, UniProt Q92918) for CC#Cc1cc(COc2nc(-c3cc(C)c4c(c3)CN(C)CC4)cnc2N)ccn1 [Example 25] please. 7.89

* * *

IC50 overview
# Measured target: HPK1 kinase (aa1-346, Life Technologies) (Homo sapiens)
# Sequence (Q92918 1-346): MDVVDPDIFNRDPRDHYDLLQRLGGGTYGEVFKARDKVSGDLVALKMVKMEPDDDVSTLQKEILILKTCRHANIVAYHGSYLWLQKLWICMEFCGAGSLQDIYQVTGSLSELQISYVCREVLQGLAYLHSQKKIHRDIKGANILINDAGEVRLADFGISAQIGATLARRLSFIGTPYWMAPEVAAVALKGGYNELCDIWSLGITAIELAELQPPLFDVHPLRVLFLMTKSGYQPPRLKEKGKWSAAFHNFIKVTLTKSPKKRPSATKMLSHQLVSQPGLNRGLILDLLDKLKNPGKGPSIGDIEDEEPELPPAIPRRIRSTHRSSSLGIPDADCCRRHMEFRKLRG
Please state the figure in nM; there is no need to write the unit.

Cc1cc(-c2cnc(N)c(-n3cc(C(=O)NC4CCOC4)cn3)n2)cc2c1CCN(C)C2 (stereo not shown) [Example 305] :: 8.9
Cc1cc(-c2cnc(N)c(OCc3ccnc4[nH]cnc34)n2)cc2c1CCN(C)C2 [Example 44] :: 19
Cc1cc(-c2cnc(N)c(OCc3ccnc(C#Cc4cccnc4)c3)n2)cc2c1CCN(C)C2 [Example 19] :: 98

For the next question, use this compound.
Using the record for CCOc1c(COc2nc(-c3cc(C)c4c(c3)CN(C)CC4)cnc2N)ccnc1N [Example 41] , state its measured IC50. 8.9

* * *

# Measured target: HPK1 kinase (aa1-346, Life Technologies) (Homo sapiens)
# Sequence (Q92918 1-346): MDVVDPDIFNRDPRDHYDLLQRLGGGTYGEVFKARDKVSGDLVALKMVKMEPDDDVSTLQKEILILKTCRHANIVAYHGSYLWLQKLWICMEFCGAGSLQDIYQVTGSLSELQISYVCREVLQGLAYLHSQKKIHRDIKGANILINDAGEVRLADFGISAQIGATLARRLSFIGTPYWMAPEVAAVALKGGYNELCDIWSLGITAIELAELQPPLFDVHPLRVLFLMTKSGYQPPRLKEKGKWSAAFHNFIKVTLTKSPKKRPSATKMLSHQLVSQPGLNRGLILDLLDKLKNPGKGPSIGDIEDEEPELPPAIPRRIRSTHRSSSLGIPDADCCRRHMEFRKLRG
Entries and their IC50
Return type: number; implicit unit nM.

COCCN(C)C(=O)c1cnn(-c2nc(-c3cc(C)c4c(c3)CN(C)CC4)cnc2N)c1 [Example 283] :: 6.3
Cc1cc(-c2cnc(N)c(Oc3cnn([C@H]4C[C@H](C#N)C4)c3)n2)cc2c1CCN(C)C2 [Example 315] :: 33
Cc1cc(-c2cnc(N)c(Oc3cnn(C4CN(S(=O)(=O)c5ccccc5)C4)c3)n2)cc2c1CCN(C)C2 [Example 296] :: 67

Hello, please tell me recorded IC50 for this one: CCOCCN(C)C(=O)c1cnn(-c2nc(-c3cc(C)c4c(c3)CN(C)CC4)cnc2N)c1 [Example 292] 5.3

* * *

In this section, each of the compounds is paired with its reported pIC50.
# Measured target: HPK1 kinase (aa1-346, Life Technologies) (Homo sapiens, UniProt Q92918)
# Construct: HPK1 kinase (aa1-346, Life Technologies); purchased Life Technologies
# Assay details: HPK Kinase Activity Assay at 1 mM ATP (TR-FRET)
# Type: biochemical
# Measurement parameters: HPK1 kinase 40 nM, 0.5 μM STK1 substrate, read-out: Enzymatic activity IC50
// returns pIC50 (minus log10 of molar concentration), number only

Cc1cc(-c2cnc(N)c(-n3cc(C(=O)N(C)c4ccccc4Cl)cn3)n2)cc2c1CCN(C)C2 :: 8.44
Cc1cc(-c2cnc(N)c(OC3CCCc4cnccc43)n2)cc2c1CCN(C)C2 (centres unmarked) :: 6.95
CN1CCc2c(cc(-c3cnc(N)c(OCc4ccnc(N)c4)n3)cc2C(F)(F)F)C1 :: 7.96

Return pIC50 for the following compound: `Cc1cc(-c2cnc(N)c(-n3cc(C(=O)N(C)CCN4CCCC4)cn3)n2)cc2c1CCN(C)C2` 7.27

Hello, please tell me recorded pIC50 for this one: Cc1cc(-c2cnc(N)c(-n3cc(C(=O)N(C)CC4CCOC4)cn3)n2)cc2c1CCN(C)C2 (centres unmarked) 8.00

Recall and state the measured pIC50 for `Cc1cc(-c2cnc(N)c(OCc3ccnc(NCC4CC4)c3)n2)cc2c1CCN(C)C2` . 7.24

Return the recorded pIC50 value; entry: `Cc1cc(-c2cnc(N)c(Oc3cnn(C4CCOCC4)c3)n2)cc2c1CCN(C)C2` 7.66

Write down pIC50 measured for item `[2H]C([2H])(Oc1nc(-c2cc(C)c3c(c2)CN(C)CC3)cnc1N)c1ccnc(N)c1` 8.29

* * *

# Measured target: HPK1 kinase (aa1-346, Life Technologies) (Homo sapiens, UniProt Q92918)
# Sequence (Q92918 1-346): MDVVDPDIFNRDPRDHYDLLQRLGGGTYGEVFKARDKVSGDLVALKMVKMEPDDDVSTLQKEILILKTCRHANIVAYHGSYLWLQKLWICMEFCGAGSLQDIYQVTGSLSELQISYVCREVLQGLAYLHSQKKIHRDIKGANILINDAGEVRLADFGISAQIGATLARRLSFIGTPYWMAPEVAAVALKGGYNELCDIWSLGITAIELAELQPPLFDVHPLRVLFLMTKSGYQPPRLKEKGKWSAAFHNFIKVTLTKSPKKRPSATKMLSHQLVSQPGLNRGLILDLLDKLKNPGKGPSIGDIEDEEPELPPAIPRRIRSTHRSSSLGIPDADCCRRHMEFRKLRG
Property: pIC50; scope: individual compounds
Reminder that pIC50 is minus the log10 of a molar concentration.

Below: 5 compounds and their reported pIC50.
Cc1cc(-c2cnc(N)c(OCc3ccncc3OC3CC3)n2)cc2c1CCN(C)C2 :: 7.80
Cc1cc(-c2cnc(N)c(OCc3cc(Cl)ncc3OC(C)C)n2)cc2c1CCN(C)C2 :: 7.57
Cc1cc(-c2cnc(N)c(OCc3ccnc(N)c3Cl)n2)cc2c1CCN(C)C2 :: 7.68
CCN1CC(n2cc(Oc3nc(-c4cc(C)c5c(c4)CN(C)CC5)cnc3N)cn2)C1 :: 7.70
Cc1cc(-c2cnc(N)c(OCc3ccncn3)n2)cc2c1CCN(C)C2 :: 6.44

Supply pIC50 measured with HPK1 kinase (aa1-346, Life Technologies) (Homo sapiens, UniProt Q92918) for `Cc1cc(-c2cnc(N)c(C(=O)Nc3ccncc3)n2)cc2c1CCN(C)C2` . 7.60
